Source listed as ChEMBL document CHEMBL4689842.

Tested on: U2OS
Protocol details: Multiplex assay against U2OS
Format: toxicity, cell-based
Measurement conditions: human, 12 h, 10 µM, compound concentration 10 uM, replicate 2
Result type: Population Healthy Nuclei (%)
Quick note: give the figure in %, leave out the unit.

Examples with answers:
[
  {
    "Compound": "COc1cc(Nc2nccc(-c3cnn4nc(OC)ccc34)n2)cc(C(F)(F)F)c1",
    "Population Healthy Nuclei (%)": 61
  },
  {
    "Compound": "Cc1cccc(CN2CCN(C(c3ccccc3)c3ccc(Cl)cc3)CC2)c1.Cl.Cl (stereo not given)",
    "Population Healthy Nuclei (%)": 72
  },
  {
    "Compound": "CC(C)NC(=O)N1CC[C@H](NC2=Nc3cc(F)ccc3N(CC(F)F)c3ccc(Cl)cc32)C1",
    "Population Healthy Nuclei (%)": 81
  },
  {
    "Compound": "C=CC(=O)Nc1cccc(Sc2nc(Nc3ccc(N4CCN(C)CC4)cc3)ncc2Cl)c1",
    "Population Healthy Nuclei (%)": 82
  }
]

Given the entry CCc1nn(CCCN2CCN(c3cccc(Cl)c3)CC2)c(=O)n1CCOc1ccccc1.Cl [NEFAZODONE HYDROCHLORIDE] , what Population Healthy Nuclei (%) was observed with U2OS?
69
